Where these numbers come from: ChEMBL document CHEMBL3856191

- Experiment: Clearance in Sprague-Dawley rat at 5 mg/kg, iv up to 24 hrs by LC/MS/MS analysis
- Type: ADME, organism-based
- Applied conditions: in vivo
Measurement kind: clearance (mL/min/kg)
Answer with a number only, understood to be in mL/min/kg.

Request the reported clearance associated with `CNCCOc1ccc(-c2sc3nc(-c4cccs4)nc(NN4C(=O)C=C(C)C4=O)c3c2C)cc1.Cl`
36.6

----------
- Experiment: Cmax in Sprague-Dawley rat at 30 mg/kg, po by LC/MS/MS analysis
- Type: ADME, organism-based
- Design: dose 30 mg/kg, route oral
- Applied conditions: in vivo
Measurement kind: Cmax
Quick note: unit goes after the number.

Request the reported Cmax associated with `CNCCOc1ccc(-c2sc3nc(-c4cccs4)nc(NN4C(=O)C=C(C)C4=O)c3c2C)cc1.Cl`
420 ng/mL

----------
# IC50 per entry
- Tested system: Receptor-type tyrosine-protein kinase FLT3 (Homo sapiens, UniProt P36888)
- Experiment: biochemical
- Description: Inhibition of recombinant human FLT3 expressed in insect Sf21 cells preincubated for 15 mins followed by poly(Glu:Tyr) substrate addition for 30 mins in presence of [gamma-32P]ATP by TR-FRET assay
Answer with a number only, understood to be in nM.

Some solved entries appear below for comparison.
| Molecule | IC50 / nM |
| --- | --- |
| CC1=CC(=O)N(Nc2nc(-c3cccs3)nc3sc(-c4ccc(OC5CCNCC5)cc4)c(C)c23)C1=O | 31.4 |
| CC1=CC(=O)N(Nc2nc(-c3cccs3)nc3sc(-c4ccc(O)cc4)cc23)C1=O | 75.5 |
| CNCCOc1ccc(-c2sc3nc(-c4cccs4)nc(NN4C(=O)C=C(C)C4=O)c3c2C)cc1.Cl | 8.03 |
| CC1=CC(=O)N(Nc2nc(-c3cccs3)nc3sc(-c4ccc(OCCNCc5ccccc5)cc4)c(C)c23)C1=O | 71.9 |

Request the reported IC50 associated with `CC1=CC(=O)N(Nc2nc(-c3cccs3)nc3sc(C)cc23)C1=O`
16.8

Follow-up entry: `CC1=CC(=O)N(Nc2nc(-c3cccs3)nc3sc(C#N)c(C)c23)C1=O`
118

Follow-up entry: `CC1=CC(=O)N(Nc2nc(-c3cccs3)nc3sc(C)c(C)c23)C1=O`
11.4

Follow-up entry: `CC1=CC(=O)N(Nc2nc(-c3cccs3)nc3sc(-c4ccc(OCCNCCO)cc4)c(C)c23)C1=O.Cl`
5.31

Follow-up entry: `CC1=CC(=O)N(Nc2nc(-c3cccs3)nc3sc(-c4ccc(OCCNCCC#N)cc4)c(C)c23)C1=O`
191

----------
- Experiment: Solubility of the compound in PBS at pH 7.4 after 1 hr by HPLC-MS analysis
- Type: physicochemical
Measurement kind: solubility at 1 h (µM)
Answer with a number only, understood to be in µM.

Request the reported solubility at 1 h associated with `CNCCOc1ccc(-c2sc3nc(-c4cccs4)nc(NN4C(=O)C=C(C)C4=O)c3c2C)cc1.Cl`
2.96

----------
- Tested system: Receptor-type tyrosine-protein kinase FLT3 (Homo sapiens, UniProt P36888, D835Y)
Measurement kind: pIC50
Notebook: values listed as pIC50 are -log10 of the concentration (mol/L).

Some solved entries appear below for comparison.
| Compound | Measured result |
| --- | --- |
| CC1=CC(=O)N(Nc2nc(-c3cccs3)nc3sc(C#N)c(C)c23)C1=O | 7.13 |
| CC1=CC(=O)N(Nc2nc(-c3cccs3)nc3sc(-c4ccc(OCCN5CCCC5)cc4)c(C)c23)C1=O | 7.78 |
| CC1=CC(=O)N(Nc2nc(-c3cccs3)nc3sc(-c4ccc(O)cc4)cc23)C1=O | 7.10 |
| CNCCOc1ccc(-c2sc3nc(-c4cccs4)nc(NN4C(=O)C=C(C)C4=O)c3c2C)cc1.Cl | 7.99 |

Request the reported pIC50 associated with `CC1=CC(=O)N(Nc2nc(-c3cccs3)nc3sc(C)c(C)c23)C1=O`
7.86

Follow-up entry: `CC1=CC(=O)N(Nc2nc(-c3cccs3)nc3sc(-c4ccc(OCCNCCO)cc4)c(C)c23)C1=O.Cl`
9.48

Follow-up entry: `CC1=CC(=O)N(Nc2nc(-c3cccs3)nc3sc(C)cc23)C1=O`
7.83

Follow-up entry: CC1=CC(=O)N(Nc2nc(-c3cccs3)nc3sc(-c4ccc(OC5CCNC5)cc4)c(C)c23)C1=O (centres undefined)
7.53

Follow-up entry: `COc1ccc(-c2cc3c(NN4C(=O)C=C(C)C4=O)nc(-c4cccs4)nc3s2)cc1`
7.33
